Entries and their measured DC50 follow.
Target: AsPC-1 HiBiT-KRASG12D (Homo sapiens, UniProt P01116, G12D)
Construct: insert the HiBiT tag onto the N-terminus of one or more of the endogenous KRAS alleles; endogenous in cells; host or cells: AsPC-1 (ATCC CRL-1682), CRISPR-Cas9 knock-in clone, one tagged allele
Sequence (P01116 1-188 isoform P01116-2 G12D): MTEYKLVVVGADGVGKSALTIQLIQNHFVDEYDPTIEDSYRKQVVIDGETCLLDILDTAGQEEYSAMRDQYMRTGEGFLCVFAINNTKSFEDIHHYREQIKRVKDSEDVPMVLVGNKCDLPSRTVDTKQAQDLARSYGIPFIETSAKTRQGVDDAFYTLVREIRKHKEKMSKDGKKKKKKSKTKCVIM
Assay: HiBiT degradation assay (G12D), AsPC-1 HiBiT-KRASG12D cells
Assay type: cell-based
Conditions: AsPC-1 HiBiT-KRASG12D cells, 24 hours treatment, HiBiT luminescence

compound	system	value_reported
Cc1ncsc1-c1ccc([C@H](C)NC(=O)[C@@H]2C[C@@H](O)CN2C(=O)[C@@H](c2cc(N3CCN(C(=O)OC[C@@H]4CC[C@@]5(COc6nc(N7CC8CCC(C7)N8)c7cnc(-c8cccc9ccc(F)c(F)c89)c(F)c7n6)CCCN45)CC3)no2)C(C)C)cc1 (relative stereo)	AsPC-1 HiBiT-KRASG12D (Homo sapiens, UniProt P01116, G12D)	< 600 nM

Below: the item to evaluate.
Incoming: Consider the compound C#Cc1c(F)ccc2cccc(-c3ncc4c(N5CC6CCC(C5)N6)nc(OC[C@]56CCCN5[C@H](COC(=O)N5CCN(c7cc(C(C(=O)N8C[C@H](O)C[C@H]8C(=O)N[C@@H](C)c8ccc(-c9scnc9C)cc8)C(C)C)on7)CC5)CC6)nc4c3F)c12 (single isomer, unassigned) and give its measured DC50.
Outgoing: < 600 nM
